Tested on: Fibroblast
experiment summary: Multiplex assay against human fibroblast
Format: toxicity, cell-based
run parameters: 24 h, 10 µM, compound concentration 10 uM, replicate 2
Measured Population Normal (%) accompanies every entry in the list below.
experimental readout: Population Normal (%)

[[record]]
molecule = "CCCCCNC(=N)N/N=C/c1c[nH]c2ccc(OC)cc12.O=C(O)/C=C\\C(=O)O [TEGASEROD MALEATE]"
system_under_test = "Fibroblast"
value_units = "%"
reported_measurement = 60

[[record]]
molecule = "CCCc1cc(C)[nH]c(=O)c1CNC(=O)c1cc(-c2ccc(N3CCN(C(C)C)CC3)nc2)cc2c1cnn2C(C)C"
system_under_test = "Fibroblast"
value_units = "%"
reported_measurement = 90

[[record]]
molecule = "Cc1c(P(=S)(c2ccccc2)c2ccccc2)n2ccccc2[n+]1C/C=C/c1ccccc1.[Br-]"
system_under_test = "Fibroblast"
value_units = "%"
reported_measurement = 73

[[record]]
molecule = "CC[C@@]1(O)C(=O)OCc2c1cc1n(c2=O)Cc2cc3ccccc3nc2-1"
system_under_test = "Fibroblast"
value_units = "%"
reported_measurement = 57

[[record]]
molecule = "Cc1c(Nc2ccc(S(=O)(=O)N3CCN(C)CC3)cc2F)nc2ccc(Nc3cnn(C4CC4)c3)cn2c1=O"
system_under_test = "Fibroblast"
value_units = "%"
reported_measurement = 78

[[record]]
molecule = "CN(c1cc(C(F)(F)F)nc(OCCC(=O)O)n1)c1cccc2c1CCC2"
system_under_test = "Fibroblast"
value_units = "%"
reported_measurement = 86

[[record]]
molecule = "CC[C@@H]1C(=O)N(C)c2cnc(Nc3ccc(C(=O)NC4CCN(C)CC4)cc3OC)nc2N1C1CCCC1"
system_under_test = "Fibroblast"
value_units = "%"
reported_measurement = 64

[[record]]
molecule = "CCCCN(CC)c1nc(C)nc2c1c(C)cn2-c1c(C)cc(C)cc1C.Cl"
system_under_test = "Fibroblast"
value_units = "%"
reported_measurement = 95

[[record]]
molecule = "CCOc1ccn(-c2ccc(F)cc2)c(=O)c1C(=O)Nc1ccc(Oc2ccnc(N)c2Cl)c(F)c1"
system_under_test = "Fibroblast"
value_units = "%"
reported_measurement = 64

[[record]]
molecule = "c1ccc(-c2oc3ncnc(NC[C@@H]4CCCO4)c3c2-c2ccccc2)cc1"
system_under_test = "Fibroblast"
value_units = "%"
reported_measurement = 90

[[record]]
molecule = "CS(=O)(=O)N1CCCC(NC(=O)[C@H](CCC2CCCCC2)NC(=O)c2ccc(CNc3ncnc4c3nnn4-c3ccccc3)cc2)C1 (some centres not stated)"
system_under_test = "Fibroblast"
value_units = "%"
reported_measurement = 90

[[record]]
molecule = "N#CCNC(=O)c1ccc(-c2ccnc(Nc3ccc(N4CCOCC4)cc3)n2)cc1"
system_under_test = "Fibroblast"
value_units = "%"
reported_measurement = 94

[[record]]
molecule = "Cc1ccc(S(=O)(=O)NC2c3ccccc3Oc3ccccc32)cc1"
system_under_test = "Fibroblast"
value_units = "%"
reported_measurement = 95

[[record]]
molecule = "CC(C)[C@H](CO)Nc1nc(Nc2cccc(Cl)c2)c2ncn(C(C)C)c2n1"
system_under_test = "Fibroblast"
value_units = "%"
reported_measurement = 91

[[record]]
molecule = "Cc1ccc(NC(=O)Nc2cc(C(F)(F)F)ccc2F)cc1Nc1ccc2c(c1)NC(=O)/C2=C\\c1ccc[nH]1"
system_under_test = "Fibroblast"
value_units = "%"
reported_measurement = 70

[[record]]
molecule = "CC(C)c1cc(Nc2nc(N3CCC[C@H](N)C3)ncc2C(N)=O)cc(C(C)C)n1"
system_under_test = "Fibroblast"
value_units = "%"
reported_measurement = 82

[[record]]
molecule = "CC(/C=C1\\SC(=S)N(CCCC(=O)Nc2ccc(C(=O)O)c(O)c2)C1=O)=C\\c1ccccc1"
system_under_test = "Fibroblast"
value_units = "%"
reported_measurement = 95

